Test system: HONE1 cell line
Assay: Cytotoxicity against human HONE1 cells assessed as reduction in cell viability incubated for 72 hrs by MTT assay
Format: functional, cell-based
Details: HONE1, 72 h
pIC50: −log10 of the molar value.
reportedEndpoint: pIC50

Param item = `C[C@@H]1C(=O)O[C@H]2C3=CC(=O)C[C@@H](O)[C@]3(C)CC[C@@H]12` ; retrieve measured pIC50.
5.16 to 5.51

----------
Molecular target: Polyunsaturated fatty acid 5-lipoxygenase (Homo sapiens, UniProt P09917)
Assay: Inhibition of 5-LOX (unknown origin)
Quick reference: pIC50 of the listed items.
Quick note: pIC50 means taking -log10 of the concentration in moles per liter.

chemSmiles: CCCOc1cc(C)c2c(c1C)C[C@H]([C@@H](C)C(=O)Nc1ncc(C)s1)CC2
assayResult: 6.10
--
chemSmiles: CCCOc1cc(C)c2c(c1C)C[C@H]([C@@H](C)C(=O)Nc1nccs1)CC2
assayResult: 6.00
--
chemSmiles: CCCOc1cc(C)c2c(c1C)C[C@H]([C@@H](C)C(=O)Nc1ccccn1)CC2
assayResult: 5.22

Then there is this molecule:
Consider the molecule `CCCOc1cc(C)c2c(c1C)C[C@H]([C@@H](C)C(=O)NCc1cccs1)CC2` and give its measured pIC50.
5.52

----------
Target: Peroxisome proliferator-activated receptor gamma (Homo sapiens, UniProt P37231)
Sequence (P37231 whole entry): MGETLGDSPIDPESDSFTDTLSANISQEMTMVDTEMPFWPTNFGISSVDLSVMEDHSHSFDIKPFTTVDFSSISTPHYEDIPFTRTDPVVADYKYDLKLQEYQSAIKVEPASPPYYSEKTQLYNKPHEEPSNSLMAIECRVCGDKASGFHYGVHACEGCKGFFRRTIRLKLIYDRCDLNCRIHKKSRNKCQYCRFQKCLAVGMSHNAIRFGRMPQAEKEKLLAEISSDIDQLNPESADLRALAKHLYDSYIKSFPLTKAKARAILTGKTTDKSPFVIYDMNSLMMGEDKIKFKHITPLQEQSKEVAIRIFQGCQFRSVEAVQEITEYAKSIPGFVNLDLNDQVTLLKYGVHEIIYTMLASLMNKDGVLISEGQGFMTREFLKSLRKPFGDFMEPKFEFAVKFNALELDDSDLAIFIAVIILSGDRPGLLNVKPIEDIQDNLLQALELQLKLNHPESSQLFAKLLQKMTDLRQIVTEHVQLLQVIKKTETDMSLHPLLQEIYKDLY
Assay: Agonist activity at GAL4- fused PPARgamma LBD (unknown origin) expressed in African green monkey COS7 cells by luciferase reporter gene assay
reportedEndpoint: pEC50
Formally, pEC50 is defined as -log10 of the concentration c, with c in mol/L.

Endpoint output: pEC50 of `CCCOc1cc(C)c2c(c1C)C[C@H]([C@H](C)C(=O)O)CC2` . Value?
4.82

----------
# pIC50 per entry
Biological target: Polyunsaturated fatty acid 5-lipoxygenase (Homo sapiens, UniProt P09917)
Sequence (P09917 whole entry): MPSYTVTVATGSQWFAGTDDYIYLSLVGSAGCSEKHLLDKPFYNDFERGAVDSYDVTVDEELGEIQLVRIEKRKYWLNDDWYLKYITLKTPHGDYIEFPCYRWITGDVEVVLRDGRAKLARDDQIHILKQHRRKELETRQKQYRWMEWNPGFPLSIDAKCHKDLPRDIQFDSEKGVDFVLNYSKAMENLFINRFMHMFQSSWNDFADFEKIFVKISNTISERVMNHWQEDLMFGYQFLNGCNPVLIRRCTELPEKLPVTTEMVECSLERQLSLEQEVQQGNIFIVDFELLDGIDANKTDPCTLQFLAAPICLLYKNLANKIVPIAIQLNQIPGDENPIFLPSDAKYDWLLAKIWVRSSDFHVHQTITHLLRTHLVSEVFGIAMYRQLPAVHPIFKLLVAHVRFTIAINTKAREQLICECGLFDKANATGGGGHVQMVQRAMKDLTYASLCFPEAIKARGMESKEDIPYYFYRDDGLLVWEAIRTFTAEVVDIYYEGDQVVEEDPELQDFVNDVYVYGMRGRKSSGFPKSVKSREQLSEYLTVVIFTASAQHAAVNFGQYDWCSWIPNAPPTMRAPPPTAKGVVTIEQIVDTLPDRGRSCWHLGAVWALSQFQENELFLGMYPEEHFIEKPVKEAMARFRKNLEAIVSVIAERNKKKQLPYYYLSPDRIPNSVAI
Experiment: Inhibition of 5-LOX in polymorphonuclear leucocytes (unknown origin)
Format: cell-based
# pIC50: negative log10 of molar concentration; output just the value

chemSmiles: CCCOc1cc(C)c2c(c1C)C[C@H]([C@@H](C)C(=O)Nc1nccs1)CC2
assayResult: 6.10
//
chemSmiles: CCCOc1cc(C)c2c(c1C)C[C@H]([C@@H](C)C(=O)NCc1cccs1)CC2
assayResult: 5.10
//
chemSmiles: CCCOc1cc(C)c2c(c1C)C[C@H]([C@@H](C)C(=O)Nc1ccccn1)CC2
assayResult: 6.05

Now for another entry.
Endpoint output: pIC50 of `CCCOc1cc(C)c2c(c1C)C[C@H]([C@@H](C)C(=O)Nc1ncc(C)s1)CC2` . Value?
6.00

// provenance: ChEMBL document CHEMBL4393702
